For each record, write down the corresponding pKd.
Biological target: T1, soluble human CD3 epsilon chain (human, UniProt P07766 23-126)
T1 construct: also called CD3ε
T1 sequence (P07766 23-126 limits assumed): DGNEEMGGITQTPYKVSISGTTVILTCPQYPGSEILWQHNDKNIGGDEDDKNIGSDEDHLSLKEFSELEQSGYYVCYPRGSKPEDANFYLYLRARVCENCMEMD
Assay: SPR
Scale for pKd: -log10 of concentration given in mol/L; no unit attached.

Task: Please give measured pKd of the following entry: TR01H103-E22Hh/none-Hi-Kn010G3/L0011-k0 (antibody, V domains shown, one-arm) VH: QVQLVESGGGLVQPGRSLRLSCAASGFTFSNAWMHWVRQAPGKGLEWVAQIKDKSQNYATYGAESVKGRFTISRDDSKNSLYLQMNSLKTEDTAVYYCRYVHYAAGYGVDAWGQGTTVTVSS VL: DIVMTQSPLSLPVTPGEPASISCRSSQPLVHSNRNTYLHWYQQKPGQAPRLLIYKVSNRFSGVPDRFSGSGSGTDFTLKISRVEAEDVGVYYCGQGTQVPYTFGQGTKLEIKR
Result: 7.11

Task: Provide pKd value for the following binder: TR01H051-E22Hh/none-Hi-Kn010G3/L0000-k0 (antibody, V domains shown, one-arm) VH: QVQLVESGGGLVQPGRSLRLSCAASGFTFSNAWMHWVRQAPGKGLEWVAQIKDKSNNYATYYAESVKGRFTISRADSKNSLYLQMNSLKTEDTAVYYCRYVHYSASYGVDIWGQGTTVTVSS VL: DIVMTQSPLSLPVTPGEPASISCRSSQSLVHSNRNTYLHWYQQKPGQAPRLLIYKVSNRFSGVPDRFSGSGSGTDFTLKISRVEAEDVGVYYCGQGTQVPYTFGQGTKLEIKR
Result: 7.54

Task: Item TR01H052-E22Hh/none-Hi-Kn010G3/L0000-k0 (antibody, V domains shown, one-arm) VH: QVQLVESGGGLVQPGRSLRLSCAASGFTFSNAWMHWVRQAPGKGLEWVAQIKDKSQNYATYYAESVKGRFTISRADSKNSLYLQMNSLKTEDTAVYYCRYVHYSASYGVDIWGQGTTVTVSS VL: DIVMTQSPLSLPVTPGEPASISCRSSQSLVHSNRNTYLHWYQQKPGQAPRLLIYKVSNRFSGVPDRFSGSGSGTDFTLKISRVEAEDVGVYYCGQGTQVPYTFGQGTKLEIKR : provide pKd
Result: 7.20

Task: Report measured pKd; entry is TR01H064-E22Hh/none-Hi-Kn010G3/L0000-k0 (antibody, V domains shown, one-arm) VH: QVQLVESGGGLVQPGRSLRLSCSASGFTFSNAWMHWVRQAPGKGLEWVAQIKDKSQNYATYYAESVKGRFTISRADSKNSIYLQMNSLKTEDTAVYYCRYVHYAASYGVDAWGQGTTVTVSS VL: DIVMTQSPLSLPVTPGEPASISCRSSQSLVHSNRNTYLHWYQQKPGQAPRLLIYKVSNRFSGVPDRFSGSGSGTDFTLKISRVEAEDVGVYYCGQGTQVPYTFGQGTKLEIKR
Result: 7.51

Task: Note down pKd recorded for TR01H004-E22Hh//-Hi-Kn010G3/L0000-k0 (antibody, V domains shown, one-arm; also called TR01H004-E22Hh//-Hi-Kn010G3/10000-ko) VH: QVQLVESGGGVVQPGRSLRLSCAASGFTFSNAWMHWVRQAPGKGLEWVAQIKAKSNNYATYYAESVKGRFTISRDDSKNSLYLQMNSLKTEDTAVYYCRRVHYYYYYGVDAWGQGTTVTVSS VL: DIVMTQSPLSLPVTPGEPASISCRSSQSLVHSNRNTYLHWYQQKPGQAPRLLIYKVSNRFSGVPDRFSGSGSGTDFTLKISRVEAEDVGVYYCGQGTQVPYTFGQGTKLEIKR
Result: 6.87
